Assay System: A/Brisbane/59/2007 (H1N1-like) inactivated viral preparation (Influenza A virus A/Brisbane/59/2007 (H1N1-like))
Assay Name: ELISA, inactivated virus
Reported EC50 is given for each of the following binders.
Answer as a quantity: numeral, then unit.

Worked cases, EC50 given:
R1a-C5 (VHH) VHH: QVQLVESGGGLVQPGGSLRLSCAASNDIFSFYTMGWYLQAIGKQREPVAVIGNGGNTNYAESVKGRFTISRDGAKNTAYLQMNSLKPEDTAVYYCMASGPGGLNVWGQGTQVTVSS
3.3 µg/mL
R1a-A5 (VHH) VHH: QVQLVESGGGLVQPGGSLRLSCSASGSAVLFSTYPMSWYRQAPGKQRELVAAVTTDGSTSYADYAKGRFTISRDNAKNTVYLQMNSLKPEDTAVYYCNARDGFFNRYDYWGQGTQVTVSS
0.38 µg/mL
R2a-E8 (VHH) VHH: QLQLVESGGGLVQPGGSLRLSCTASGDIFVMYMIDWYRQAPGKQRELVASIDGRGTPMYADSVKGRFTISRDNAKNTVYLQMNSLKPEDTAVYSCHAKSPLVDNEYWGQGTQVTVSS
1.42 µg/mL

# ---- query binder ----
Exercise: Which EC50 is reported for this binder? R2b-D8 (VHH) VHH: QVQLVESGGGLVQPGGSLRLSCAASGFTFSWYDVGWYRRAPGKERELVADIASTRGTTNYADSVKGRFTISRDNAKNSVYLQMNSLKPEDTAVYYCNTRRDWRDYWGQGIQVTVSS
Solution: 14.8 µg/mL
